target-under-test: human SLC6A19 (Homo sapiens)
Construct: expressed in transfected cells
Sequence (Q695T7 whole entry): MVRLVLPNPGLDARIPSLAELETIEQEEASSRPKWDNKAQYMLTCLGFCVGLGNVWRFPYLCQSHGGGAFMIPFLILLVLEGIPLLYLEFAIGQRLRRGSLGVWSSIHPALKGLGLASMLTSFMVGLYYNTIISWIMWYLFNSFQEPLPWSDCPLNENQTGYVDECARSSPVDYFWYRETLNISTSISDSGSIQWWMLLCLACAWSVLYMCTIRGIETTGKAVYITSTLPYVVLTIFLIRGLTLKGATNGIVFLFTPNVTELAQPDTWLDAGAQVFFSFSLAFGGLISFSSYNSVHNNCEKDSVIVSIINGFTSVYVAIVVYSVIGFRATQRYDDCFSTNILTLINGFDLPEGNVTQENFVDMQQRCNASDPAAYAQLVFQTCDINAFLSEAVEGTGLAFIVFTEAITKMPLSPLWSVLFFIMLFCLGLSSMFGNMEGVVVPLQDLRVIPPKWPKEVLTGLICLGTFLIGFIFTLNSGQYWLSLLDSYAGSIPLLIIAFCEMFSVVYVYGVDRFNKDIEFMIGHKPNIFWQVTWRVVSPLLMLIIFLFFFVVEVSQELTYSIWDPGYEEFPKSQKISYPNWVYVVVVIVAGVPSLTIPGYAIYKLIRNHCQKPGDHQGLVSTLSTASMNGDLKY
Sequence (Q9HBJ8 15-222 partner): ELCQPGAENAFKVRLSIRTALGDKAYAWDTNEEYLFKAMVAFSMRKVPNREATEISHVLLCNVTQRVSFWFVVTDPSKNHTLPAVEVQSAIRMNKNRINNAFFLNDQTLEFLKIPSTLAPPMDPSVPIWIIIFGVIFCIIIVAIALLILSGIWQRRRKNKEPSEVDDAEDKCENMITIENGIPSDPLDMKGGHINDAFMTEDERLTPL
test-protocol: Example B2: 13C6,15N-isoleucine uptake, RapidFire mass spectrometry, in CHO cells with doxycycline-inducible expression of human SLC6A19 and TMEM27
Format: cell-based
setup-conditions: read-out: SLC6A19_RapidFire Uptake Assay IC50
Reported IC50 by item:

| compound | unit-symbol | IC50 |
| --- | --- | --- |
| CN(C(=O)NCc1cc2cc(Cl)ccc2[nH]1)[C@@H]1CCCN(C(=O)Cn2nccn2)C1 | µM | 3.7 |
| CC(=O)N1CC(C(=O)N2CCC[C@@H](N(C)C(=O)NCc3cc4cc(Cl)ccc4[nH]3)C2)C1 | µM | 0.933 |
| CC(=O)N1CCC[C@@H](N(C)C(=O)NCc2[nH]c3ccc(Cl)cc3c2C)C1 | µM | 0.108 |
| CN(C(=O)NCc1cc2cc(Cl)ccc2[nH]1)[C@@H]1CCCN(C(=O)Cc2ccn(C)n2)C1 | µM | 0.396 |
| CC(=O)N1CCC[C@@H](N(C)C(=O)NCc2cc3ccc(C#N)cc3[nH]2)C1 | µM | 10.9 |
| CN(C(=O)NCc1cc2cc(Cl)ccc2[nH]1)[C@@H]1CCCN(C(=O)C2(C)COC2)C1 | µM | 1.44 |
| CNc1cc(Cl)cc2cc(CNC(=O)N(C)[C@@H]3CCCN(C(C)=O)C3)[nH]c12 | µM | 1.57 |
| CCC(O)C(=O)N1CCC[C@@H](N(C)C(=O)NCc2cc3cc(Cl)ccc3[nH]2)C1 (some centres unmarked) | µM | 5.25 |

meta.source: patent US20260184693A1
